Every entry's value here was drawn from the supplement of paper PMC10126150.

Entries annotated with measured switch fluorescence ratio
System: ATP;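 also: ATP exposure 15 min at 22 °C before imaging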
Assay: switch fluorescence ratio, 500 uM ATP over buffer (Cy3 cluster intensity, sum of 5 cycles each) (fold (ratio)); higher = stronger signal-on switching upon ATP binding; sequences stand for … in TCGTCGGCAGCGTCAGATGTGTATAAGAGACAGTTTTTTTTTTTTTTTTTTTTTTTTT…TC
Conditions: aptamer strand: ATP DNA aptamer (quencher-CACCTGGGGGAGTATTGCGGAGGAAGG + anchor), 100 nM annealed; ATP concentration: 500 uM
Note: the reply should be a number with no unit written.

# example entries with known answers
SEQ_TEXT	OBSERVED_PROPERTY	OBS_VALUE
TTAGAAACGC	switch fluorescence ratio	1.02
ATACATAACG	switch fluorescence ratio	1.38
GGGTCTAGCG	switch fluorescence ratio	1.01
GCTAGTTATG	switch fluorescence ratio	1.04
GTTCGAAGGG	switch fluorescence ratio	0.987
TTCGGAGTTG	switch fluorescence ratio	1
TTTTTAAGCG	switch fluorescence ratio	1
TTATTAGGCA	switch fluorescence ratio	1.01

Asked: Fill in: switch fluorescence ratio of GGTGAAGTGT is ___
Given back: 1

Asked: Follow-up entry: AATGAGACAG
Given back: 1

* * *

Test system: ATP;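 also: ATP exposure 15 min at 22 °C before imaging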
Assay: switch fluorescence ratio, 500 uM ATP over buffer (Cy3 cluster intensity, sum of 5 cycles each) (fold (ratio)); higher = stronger signal-on switching upon ATP binding; sequences stand for … in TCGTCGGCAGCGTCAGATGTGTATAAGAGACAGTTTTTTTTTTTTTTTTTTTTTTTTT…TC
Conditions: aptamer strand: ATP DNA aptamer (quencher-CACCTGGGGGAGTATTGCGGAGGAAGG + anchor), 100 nM annealed; ATP concentration: 500 uM
OBSERVED_PROPERTY: switch fluorescence ratio
Note: the reply should be a number with no unit written.

SEQ_TEXT	ASSAYED_SYSTEM	OBS_VALUE
AAATAGGCA	ATP	0.981
TGGAAAAAAG	ATP	0.99
TTCGGAAATG	ATP	1.03
GTGCAGGTGC	ATP	1.37
CATTGTGACT	ATP	1

Asked: Fill in: switch fluorescence ratio of CAGGGGTTA is ___
Given back: 1.03

Asked: Follow-up entry: GACATATTAT
Given back: 1.01

Asked: Follow-up entry: ATTCGGGGG
Given back: 0.927

Asked: Follow-up entry: CTGGGGCGCT
Given back: 1.03

Asked: Follow-up entry: TATTTAGTAG
Given back: 1.01

Asked: Follow-up entry: AATACGGGGG
Given back: 1.03

Asked: Follow-up entry: CTAGAGTGAG
Given back: 1.02

Asked: Follow-up entry: CGTAAAAAAT
Given back: 0.986

Asked: Follow-up entry: CGCACGGGTC
Given back: 1.11

Asked: Follow-up entry: CTCCGGGAAA
Given back: 1.21

Asked: Follow-up entry: TATGGTCTGT
Given back: 0.981

Asked: Follow-up entry: GGTTCGTATA
Given back: 1.01

Asked: Follow-up entry: TGGGCTCTGT
Given back: 0.978

Asked: Follow-up entry: TACAGAGGG
Given back: 0.966

Asked: Follow-up entry: TGGATGTCGT
Given back: 1.01

Asked: Follow-up entry: GTTGATTTTG
Given back: 0.981

Asked: Follow-up entry: TAGGTCCTGG
Given back: 0.989

Asked: Follow-up entry: TTGCGCGGGA
Given back: 1.02

Asked: Follow-up entry: TCGTTCACTG
Given back: 0.989

Asked: Follow-up entry: GTTAGAAGTG
Given back: 0.985

Asked: Follow-up entry: TTACTGGCT
Given back: 1

Asked: Follow-up entry: CGGGTACTAG
Given back: 1.02

Asked: Follow-up entry: TAGGGCAACG
Given back: 1.04

* * *

Tested on: ATP;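 also: ATP exposure 15 min at 22 °C before imaging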
Assay: switch fluorescence ratio, 500 uM ATP over buffer (Cy3 cluster intensity, sum of 5 cycles each) (fold (ratio)); higher = stronger signal-on switching upon ATP binding; sequences stand for … in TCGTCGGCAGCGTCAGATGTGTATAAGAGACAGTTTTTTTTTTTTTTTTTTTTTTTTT…TC
Conditions: aptamer strand: ATP DNA aptamer (quencher-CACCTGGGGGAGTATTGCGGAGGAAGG + anchor), 100 nM annealed; ATP concentration: 500 uM
Entries annotated with measured switch fluorescence ratio
Note: the reply should be a number with no unit written.

# example entries with known answers
SEQ_TEXT	switch fluorescence ratio
GGCCAGGGGG	1
GTGATTTTTG	1.01
CTCGTATCAG	1.01
TTAAGTGGTT	0.998
GGGGATCAGG	1.03

Asked: Find the measured switch fluorescence ratio: item TTACAGCTGA , target or system ATP.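 Also: ATP exposure 15 min at 22 °C before imaging.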
Given back: 1.01

Asked: Follow-up entry: AGTTGGGTCA
Given back: 0.993

* * *

Tested on: ATP;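 also: ATP exposure 15 min at 22 °C before imaging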
Assay: switch fluorescence ratio, 500 uM ATP over buffer (Cy3 cluster intensity, sum of 5 cycles each) (fold (ratio)); higher = stronger signal-on switching upon ATP binding; sequences stand for … in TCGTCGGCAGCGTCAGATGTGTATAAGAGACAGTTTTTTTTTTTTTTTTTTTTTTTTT…TC
Details: aptamer strand: ATP DNA aptamer (quencher-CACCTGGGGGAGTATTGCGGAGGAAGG + anchor), 100 nM annealed; ATP concentration: 500 uM
Tick class 1 if switch fluorescence ratio is 1 or greater. Tick class 0 if switch fluorescence ratio is less than 1.

Use these answered entries as a reference point.
SEQ_TEXT	ASSAYED_SYSTEM	LABEL
TTGCCTGTGT	ATP	class 1
TATAATTCTG	ATP	class 1
GAGGAGAACG	ATP	class 0
GGATTACTGG	ATP	class 1
GGATTAGGTG	ATP	class 1
ATCACAGCTA	ATP	class 1
CCCAGTGGGA	ATP	class 1
TTTAGCGTGG	ATP	class 1
ATAGGTTTGG	ATP	class 0
AAACCGATGG	ATP	class 1

Asked: Determine whether this sequence has switch fluorescence ratio no lower than 1: TCGTCATTGC
Given back: class 1

Asked: Follow-up entry: AGAGGTTGCG
Given back: class 0

Asked: Follow-up entry: CGATGTTTTT
Given back: class 0

Asked: Follow-up entry: CTGACGTGCT
Given back: class 1

* * *

System: ATP;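 also: ATP exposure 15 min at 22 °C before imaging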
Experiment: switch fluorescence ratio, 500 uM ATP over buffer (Cy3 cluster intensity, sum of 5 cycles each) (fold (ratio)); higher = stronger signal-on switching upon ATP binding; sequences stand for … in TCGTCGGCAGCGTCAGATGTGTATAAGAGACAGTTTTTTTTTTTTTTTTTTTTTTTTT…TC
Details: aptamer strand: ATP DNA aptamer (quencher-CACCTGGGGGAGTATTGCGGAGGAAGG + anchor), 100 nM annealed; ATP concentration: 500 uM
OBSERVED_PROPERTY: switch fluorescence ratio
Note: the reply should be a number with no unit written.

# example entries with known answers
SEQ_TEXT	switch fluorescence ratio
CGTTTTTGGG	0.985
GGGTGAGCTT	1.01
ATATGTGGTG	1.02
ATTAAAAAAT	0.98
ACGAGTTTTT	1.01

Asked: Fill in: switch fluorescence ratio of CCATGTTGCT is ___
Given back: 0.961

Asked: Follow-up entry: GGGATAAAGG
Given back: 0.993

Asked: Follow-up entry: GAGTGACGGA
Given back: 1

Asked: Follow-up entry: ACGGGCCGGT
Given back: 0.98

Asked: Follow-up entry: ACGGAATTTT
Given back: 1.09

Asked: Follow-up entry: TGCGATGTAG
Given back: 0.989

Asked: Follow-up entry: ATAATGCAGG
Given back: 1

Asked: Follow-up entry: CTGGCACAGA
Given back: 0.988

Asked: Follow-up entry: CGGTTGACGT
Given back: 1.01

Asked: Follow-up entry: GGAAAGGGGG
Given back: 1.01

Asked: Follow-up entry: GTTCGTTAGC
Given back: 0.988

Asked: Follow-up entry: TTGGTACGGC
Given back: 0.99

Asked: Follow-up entry: ATATTTTTTA
Given back: 0.976

Asked: Follow-up entry: TGCTGGGGTG
Given back: 1.04

Asked: Follow-up entry: GCAGTTGGAA
Given back: 1.06

* * *

Entries annotated with measured switch fluorescence ratio
System: ATP;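 also: ATP exposure 15 min at 22 °C before imaging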
Test: switch fluorescence ratio, 500 uM ATP over buffer (Cy3 cluster intensity, sum of 5 cycles each) (fold (ratio)); higher = stronger signal-on switching upon ATP binding; sequences stand for … in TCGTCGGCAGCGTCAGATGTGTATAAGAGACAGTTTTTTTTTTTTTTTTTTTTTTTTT…TC
Conditions: aptamer strand: ATP DNA aptamer (quencher-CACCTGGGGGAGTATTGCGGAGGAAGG + anchor), 100 nM annealed; ATP concentration: 500 uM
Note: the reply should be a number with no unit written.

# example entries with known answers
SEQ_TEXT	switch fluorescence ratio
ACGGATATGG	0.98
GGAATGGGCG	1.02
GCTGGTAATG	1.01
GCTGGGGTGG	1.01

Asked: Find the measured switch fluorescence ratio: item AAGCATCTAC , target or system ATP.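 Also: ATP exposure 15 min at 22 °C before imaging.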
Given back: 2.08

Asked: Follow-up entry: GATTTCGTAT
Given back: 0.98

Asked: Follow-up entry: AAAAAATTGC
Given back: 1.04
